Target: EonuCSP6-2 (Empoasca onukii, UniProt A0A343WH13)
Sequence (A0A343WH13 entry or part of it): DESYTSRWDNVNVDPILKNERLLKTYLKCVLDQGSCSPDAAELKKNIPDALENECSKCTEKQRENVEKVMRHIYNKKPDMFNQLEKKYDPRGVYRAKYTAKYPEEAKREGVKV
Assay protocol: Competitive fluorescence binding assay (1-NPN probe) with recombinant EonuCSP6-2
Property label: Kd (µM)
Write the value in µM as a bare number.

Looking up c1ccc(Nc2cccc3ccccc23)cc1 [1-NPN, N-phenyl-1-naphthylamine] , I found its Kd recorded as 10.2

* * *

Target: UniProt:A0A343WGZ9
Sequence (A0A343WGZ9 entry or part of it): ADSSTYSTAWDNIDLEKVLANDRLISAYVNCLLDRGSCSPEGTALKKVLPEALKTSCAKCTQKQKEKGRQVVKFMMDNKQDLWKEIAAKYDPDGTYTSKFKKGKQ
Assay protocol: Competitive fluorescence binding assay (1-NPN probe) with recombinant EonuCSP4
Property label: pKd
// pKd is dimensionless: -log10 of concentration (M)

Looking up `c1ccc(Nc2cccc3ccccc23)cc1` , I found its pKd recorded as 4.96

* * *

Target: EonuCSP 6-1 (Empoasca onukii, UniProt A0A343WH12)
Sequence (A0A343WH12 entry or part of it): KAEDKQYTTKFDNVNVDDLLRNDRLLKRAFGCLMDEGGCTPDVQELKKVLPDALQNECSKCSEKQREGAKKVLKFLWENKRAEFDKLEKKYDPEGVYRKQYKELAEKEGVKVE
Assay protocol: Competitive fluorescence binding assay (1-NPN probe) with recombinant EonuCSP6-1
Property label: pKd
// pKd is dimensionless: -log10 of concentration (M)

// molecule `c1ccc(Nc2cccc3ccccc23)cc1` , assay EonuCSP 6-1 (Empoasca onukii, UniProt A0A343WH12), pKd value: 4.90

Reference for the values: paper PMC9845707
